Recorded values, source PubChem BioAssay.

composite z-score: recorded values
Assay: binders of probe aFGF2 on microarray, primary screen, stem cell growth factor project, biochemical, small-molecule microarray, fluorescence 635/667 (AID 1067);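 also: measures binding of biotinylated aFGF2 protein to printed compounds on slides; z-score merges feature fluorescence and signal-to-noise across triplicate slides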
Conditions: higher = more signal

MOLECULE | composite z-score
Cc1cc(C)cc(N2C(=O)CS(=O)(=O)C2c2cccc([N+](=O)[O-])c2)c1 (stereo not drawn) | 0.245
O=C1O[C@H](c2ccccc2)[C@H](c2ccccc2)N2[C@H]1[C@@H](C(=O)N1CCN(c3ncccn3)CC1)[C@]1(C(=O)Nc3ccccc31)[C@H]2c1ccc(OCCO)cc1 | -0.106
COc1ccc(CCN2C(=O)[C@@]3(Cc4ccccc42)c2ccccc2C(=O)N(Cc2ccccc2Cl)[C@H]3c2ccc(CO)cc2)cc1 | -0.0744

# input molecule: CC(c1ccccc1)C(O)C1C=CC2C(=O)NC(=O)C2N1Nc1ccccn1 (stereo not drawn) ; wanted: its composite z-score -0.044

Here is the next molecule: "O=C/C=C/c1ccc2c(c1)OCO2" -0.115

Here is the next molecule: "C=CCNC(=O)[C@@H]1[C@H]2C(=O)O[C@H](c3ccccc3)[C@H](c3ccccc3)N2[C@H](c2ccc(O)cc2)[C@@]12C(=O)N(C(=O)OCCOC)c1ccccc12" -0.0434

Here is the next molecule: "C[N+](C)(C)CCCCCCNC(=O)[C@H]1C[C@H]2C(=O)N3CCC[C@H]3C(=O)N2[C@H]1c1ccc(O)cc1" -0.116

Here is the next molecule: "[N-]=[N+]=NCc1ccccc1[C@H]1OC(c2ccc(OCCCO)cc2)=N[C@@]1(CCS(=O)(=O)c1ccccc1)C(=O)N1CCOCC1" 0.221
